These entries and their values trace back to the kinase profiling compilation of Christmann-Franck et al. (2016).

biological target: ROCK2 (human) (UniProt O75116); assay: radiometric filter-binding kinase assay, Kinase HotSpot; settings: compound 0.5 µM; ATP 10 µM
Sequence (O75116 whole entry, looked up): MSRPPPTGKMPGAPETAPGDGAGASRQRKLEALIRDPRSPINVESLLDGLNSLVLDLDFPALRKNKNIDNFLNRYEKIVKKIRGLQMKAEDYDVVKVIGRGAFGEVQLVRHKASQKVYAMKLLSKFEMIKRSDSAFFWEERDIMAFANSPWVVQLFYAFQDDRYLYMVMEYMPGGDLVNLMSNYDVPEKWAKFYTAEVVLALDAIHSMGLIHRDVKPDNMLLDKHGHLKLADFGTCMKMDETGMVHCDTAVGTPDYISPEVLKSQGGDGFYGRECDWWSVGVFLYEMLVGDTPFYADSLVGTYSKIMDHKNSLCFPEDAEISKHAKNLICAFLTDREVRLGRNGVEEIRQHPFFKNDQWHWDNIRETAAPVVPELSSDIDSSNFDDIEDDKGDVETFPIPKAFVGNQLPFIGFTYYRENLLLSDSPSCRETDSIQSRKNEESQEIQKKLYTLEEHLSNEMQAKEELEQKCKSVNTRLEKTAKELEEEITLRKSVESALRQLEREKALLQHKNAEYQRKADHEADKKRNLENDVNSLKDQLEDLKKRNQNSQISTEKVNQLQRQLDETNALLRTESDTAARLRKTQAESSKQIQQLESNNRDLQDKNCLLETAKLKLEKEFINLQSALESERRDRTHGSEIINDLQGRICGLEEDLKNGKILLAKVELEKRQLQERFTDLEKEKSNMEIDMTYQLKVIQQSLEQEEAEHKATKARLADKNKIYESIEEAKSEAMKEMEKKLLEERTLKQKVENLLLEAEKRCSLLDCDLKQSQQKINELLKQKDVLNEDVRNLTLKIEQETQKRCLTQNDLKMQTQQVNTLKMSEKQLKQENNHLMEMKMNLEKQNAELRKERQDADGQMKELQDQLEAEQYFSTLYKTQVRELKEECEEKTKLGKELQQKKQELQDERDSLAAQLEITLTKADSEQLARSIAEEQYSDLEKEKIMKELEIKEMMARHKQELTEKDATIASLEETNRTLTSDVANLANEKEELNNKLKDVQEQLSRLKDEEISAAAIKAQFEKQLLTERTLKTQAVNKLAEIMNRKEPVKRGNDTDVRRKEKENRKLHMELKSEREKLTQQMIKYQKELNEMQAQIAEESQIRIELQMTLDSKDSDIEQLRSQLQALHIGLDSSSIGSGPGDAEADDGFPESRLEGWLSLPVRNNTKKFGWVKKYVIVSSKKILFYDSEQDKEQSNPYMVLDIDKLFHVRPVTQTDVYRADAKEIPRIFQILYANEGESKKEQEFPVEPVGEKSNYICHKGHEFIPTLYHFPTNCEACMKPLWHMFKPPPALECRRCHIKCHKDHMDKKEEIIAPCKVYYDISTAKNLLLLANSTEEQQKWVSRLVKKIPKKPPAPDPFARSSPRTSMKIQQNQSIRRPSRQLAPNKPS
MEASURED METRIC: residual activity (%)
Express it in %; write the number only.

Would you mind telling me what residual activity value was observed for COc1cc2ncnc(N3CCN(C(=O)Nc4ccc(Oc5ccccc5)cc4)CC3)c2cc1OC ? 125

Would you mind telling me what residual activity value was observed for O=C1NC(=O)/C(=C\c2ccc3nccnc3c2)S1 ? 91.3

Would you mind telling me what residual activity value was observed for O=C1Nc2ccccc2/C1=C1\Nc2ccccc2\C1=N/O ? 98.5

Would you mind telling me what residual activity value was observed for COc1cc2ncc(-c3ccccc3)nc2cc1OC ? 96.1

Would you mind telling me what residual activity value was observed for Nc1nccc(-c2c(-c3ccc(F)cc3)ncn2C2CCNCC2)n1 ? 103

Would you mind telling me what residual activity value was observed for O=C1NC(=O)C(c2cn(CCCO)c3ncccc23)=C1c1cnccn1 ? 96

Would you mind telling me what residual activity value was observed for CN([C@@H](Cc1ccc(OS(=O)(=O)c2cccc3cnccc23)cc1)C(=O)N1CCN(c2ccccc2)CC1)S(=O)(=O)c1cccc2cnccc12 ? 105

Would you mind telling me what residual activity value was observed for Nc1nnc2[nH]c3ccccc3nc1-2 ? 93.3

Would you mind telling me what residual activity value was observed for Oc1ccc(Nc2nc(-c3ccc(Cl)cc3)cs2)cc1 ? 99.4

Would you mind telling me what residual activity value was observed for COc1ccc(OC)c2c(=S)c3ccccc3[nH]c12 ? 90.4

Would you mind telling me what residual activity value was observed for COc1ccc(CNC(=O)Nc2ncc([N+](=O)[O-])s2)cc1 ? 99.8
